system: Human RAR-related Orphan Receptor Gamma (RORγ) (Homo sapiens, UniProt P51449)
Sequence (P51449 269-508 limits assumed): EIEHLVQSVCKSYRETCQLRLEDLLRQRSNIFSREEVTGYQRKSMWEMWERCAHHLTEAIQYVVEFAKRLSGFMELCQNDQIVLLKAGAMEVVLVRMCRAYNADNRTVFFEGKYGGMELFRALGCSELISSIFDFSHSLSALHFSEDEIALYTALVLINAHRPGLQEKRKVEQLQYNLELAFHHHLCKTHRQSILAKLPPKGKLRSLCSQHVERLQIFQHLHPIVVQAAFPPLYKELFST
assay-overview: RORγ assay (GAL4-RORγ hybrid luciferase reporter, Indigo Biosciences)
test-conditions: inverse-agonist activity, GAL4-RORγ reporter cells, 23 hours
quantity-measured: pIC50
Please report pIC50 as the negative decimal logarithm of the molar concentration, giving only the number.

                                   compound  experimental_result
0  C[C@H]1C(=O)C(C#N)=C[C@@]2(C)c3nc(-c4cccc(-c5ccccc5)c4)n(-c4cccc(F)c4)c3CC[C@H]12 [T128]                 6.80
1  C[C@H]1C(=O)C(C#N)=C[C@@]2(C)c3nc(-c4ccnc(N5CCOCC5)c4)n(-c4cccc(F)c4)c3CC[C@H]12 [T139]                 6.95
2  C[C@H]1C(=O)C(C#N)=C[C@@]2(C)c3c(c(-c4ccccc4F)nn3-c3nc(-c4ccccc4)cs3)CC[C@H]12 [T87]                 6.16

Alright, here's another compound for you.
### Prompt Look up and state reported pIC50 for CC(C)c1ccc(-c2nc3c(n2Cc2ccccc2F)CC[C@@H]2[C@@H](C)C(=O)C(C#N)=C[C@@]32C)cc1 [T168]
### Response 6.53

###

Measured IC50 values are reported for all entries that follow.
Tested on: IL-17A
assay-overview: IL-17 release from differentiated primary human T-cells (IL-17A HTRF assay)
Type: cell-based
test-conditions: primary human CD4+ T cells differentiated into Th17 cells, 45-hour incubation, IL-17A in supernatant; read-out: hIL17 IC50
Hi! Could you send only the number? It should be in nM, unit omitted.

See these solved cases before continuing.
>>> print(df.to_string())
                                   compound  system  quantity_measured  experimental_result
0  Cc1ccc(-n2nc(-c3ccccc3)c3c2[C@]2(C)C=C(C#N)C(=O)[C@H](C)[C@H]2CC3)cn1  IL-17A               IC50                  170
1  C[C@H]1C(=O)C(C#N)=C[C@@]2(C)c3c(c(-c4ccccc4F)nn3-c3nnc(-c4ccccc4)n3C)CC[C@H]12  IL-17A               IC50                   88
2  C[C@H]1C(=O)C(C#N)=C[C@@]2(C)c3nc(-c4cccc(-c5ccccc5)c4)n(-c4cccnc4)c3CC[C@H]12  IL-17A               IC50                  161
3  Cc1nc(-c2ccc(-n3nc(-c4ccc(F)cc4)c4c3[C@]3(C)C=C(C#N)C(=O)[C@H](C)[C@H]3CC4)cc2)no1  IL-17A               IC50                   32

Alright, here's another compound for you.
### Prompt Look up and state reported IC50 for C[C@H]1C(=O)C(C#N)=C[C@@]2(C)c3nc(-c4ccc(-c5ccccc5)cc4)n(-c4cccc(F)c4)c3CC[C@H]12
### Response 62

###

system: Human RAR-related Orphan Receptor Gamma (RORγ) (Homo sapiens)
assay-overview: RORγ assay (GAL4-RORγ hybrid luciferase reporter, Indigo Biosciences)
test-conditions: inverse-agonist activity, GAL4-RORγ reporter cells, 23 hours
quantity-measured: pIC50
Please report pIC50 as the negative decimal logarithm of the molar concentration, giving only the number.

                                   compound                                    system  experimental_result
0  Cc1cnnc(-c2ccc(-n3nc(-c4ccc(F)cc4)c4c3[C@]3(C)C=C(C#N)C(=O)[C@H](C)[C@H]3CC4)cc2)c1 [T179]  Human RAR-related Orphan Receptor Gamma (RORγ) (Homo sapiens)                 7.43
1  C[C@H]1C(=O)C(C#N)=C[C@@]2(C)c3c(c(-c4ccc(F)cc4)nn3-c3ccc(-c4ncon4)cc3)CC[C@H]12 [T183]  Human RAR-related Orphan Receptor Gamma (RORγ) (Homo sapiens)                 6.95
2  C[C@H]1C(=O)C(C#N)=C[C@@]2(C)c3c(c(-c4ccncn4)nn3-c3ccc(-c4ccccc4)cc3)CC[C@H]12 [T48]  Human RAR-related Orphan Receptor Gamma (RORγ) (Homo sapiens)                 7.35
3  C[C@H]1C(=O)C(C#N)=C[C@@]2(C)c3nn(-c4ccc(-c5ccccc5)cc4)c(-c4ccccc4)c3CC[C@H]12 [T22]  Human RAR-related Orphan Receptor Gamma (RORγ) (Homo sapiens)                 6.76
4  C[C@H]1C(=O)C(C#N)=C[C@@]2(C)c3nn(C4CCCCC4)c(-c4ccccc4)c3CC[C@H]12 [T1]  Human RAR-related Orphan Receptor Gamma (RORγ) (Homo sapiens)                 6.76
5  C[C@H]1C(=O)C(C#N)=C[C@@]2(C)c3nn(-c4cccc(-c5ccccc5)c4)c(-c4cccc(F)c4)c3CC[C@H]12 [T126]  Human RAR-related Orphan Receptor Gamma (RORγ) (Homo sapiens)                 6.60

Alright, here's another compound for you.
### Prompt Look up and state reported pIC50 for Cc1noc(C)c1-c1cccc(-c2nc3c(n2-c2cccc(F)c2)CC[C@@H]2[C@@H](C)C(=O)C(C#N)=C[C@@]32C)c1 [T150]
### Response 6.87
